# TARGET: Glucose transporter (Leishmania mexicana)
# TEST_METHOD_NOTES: ST_JUDE_LEISH: Cytotoxicity at 2uM final concentration against transgenic Leishmania Mexicana promastigotes LmGT2 that are glucose transport deficient and complemented with the L. Mexicana glucose transporter 2. Activity is measured by DNA content using SYBR green in vitro
# Type: functional
The molecules listed here are annotated with their inhibition.
Field: numeric (%). Do not append units.

Recorded inhibition, per entry:
[
  {
    "MOLECULE": "Cc1[nH]c(C)c(-c2ccc(OCCOc3ccc(C(F)(F)F)cn3)cc2)c(=O)c1Br",
    "TARGET": "Glucose transporter (Leishmania mexicana)",
    "ASSAY_VALUE": -1.93
  },
  {
    "MOLECULE": "CCOC(=O)c1cncc(/C=C/c2cc(C)cnc2N)c1",
    "TARGET": "Glucose transporter (Leishmania mexicana)",
    "ASSAY_VALUE": 8.04
  },
  {
    "MOLECULE": "CCn1c(Sc2ccc([N+](=O)[O-])c(C#N)c2)nnc1-c1cccc(Cl)c1",
    "TARGET": "Glucose transporter (Leishmania mexicana)",
    "ASSAY_VALUE": -1.08
  },
  {
    "MOLECULE": "Cc1cc(NCC(c2ccccc2)c2ccccc2)nc(NCc2ccc(C(F)(F)F)cc2)n1",
    "TARGET": "Glucose transporter (Leishmania mexicana)",
    "ASSAY_VALUE": 3.66
  }
]

Here is the next item to consider.
Given the molecule Cc1cc(OCCCN2CCC(NS(=O)(=O)c3cccc(Br)c3)C2)c2ccccc2n1 (stereo not given) , what is its reported inhibition?
1.56
